Where these numbers come from: patent US20240309103A1

- tgt: T1, monkey NPR1 extracellular domain expressed with a C-terminal myc-myc-hexahistidine (mfNPR1-MMH) (monkey, UniProt P16066 33-473 (human entry))
- T1 construct: also called monomeric monkey NPR1
- T1 chain: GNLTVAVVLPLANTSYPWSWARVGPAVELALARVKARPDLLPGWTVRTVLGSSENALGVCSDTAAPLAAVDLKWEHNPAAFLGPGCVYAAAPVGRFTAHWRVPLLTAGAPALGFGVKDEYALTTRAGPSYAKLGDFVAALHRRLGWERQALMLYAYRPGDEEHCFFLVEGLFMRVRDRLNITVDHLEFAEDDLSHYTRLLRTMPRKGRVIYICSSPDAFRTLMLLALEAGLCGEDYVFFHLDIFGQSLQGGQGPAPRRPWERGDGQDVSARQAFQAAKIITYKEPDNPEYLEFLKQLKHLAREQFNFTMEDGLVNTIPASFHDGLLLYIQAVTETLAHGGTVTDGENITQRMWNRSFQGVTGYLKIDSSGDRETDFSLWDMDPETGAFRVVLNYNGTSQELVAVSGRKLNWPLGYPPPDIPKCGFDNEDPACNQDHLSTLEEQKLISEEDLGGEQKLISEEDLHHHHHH
- assay_details: SPR, mAb captured, 25 C
measured_property: koff (s⁻¹)
One number for each entry, in s⁻¹.

Solved cases below.
- binder: "mAb25497 (antibody, V domains shown) VH: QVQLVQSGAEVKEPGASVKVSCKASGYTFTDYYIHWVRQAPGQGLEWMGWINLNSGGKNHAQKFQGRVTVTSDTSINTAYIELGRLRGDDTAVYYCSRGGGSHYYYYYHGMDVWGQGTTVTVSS VL: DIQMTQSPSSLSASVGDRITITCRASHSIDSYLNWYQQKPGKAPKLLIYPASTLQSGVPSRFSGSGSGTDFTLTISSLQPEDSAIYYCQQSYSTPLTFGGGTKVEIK"
  test_result: 0.00226
- binder: "mAb22035 (antibody, V domains shown) VH: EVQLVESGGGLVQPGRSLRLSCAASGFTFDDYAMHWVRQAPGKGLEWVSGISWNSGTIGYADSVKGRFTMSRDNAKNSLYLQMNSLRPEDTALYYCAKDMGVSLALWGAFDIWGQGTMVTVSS VL: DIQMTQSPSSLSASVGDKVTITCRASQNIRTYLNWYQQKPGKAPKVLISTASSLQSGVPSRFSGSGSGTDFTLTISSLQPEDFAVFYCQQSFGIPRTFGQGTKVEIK"
  test_result: 0.000143
- binder: "mAb25479 (antibody, V domains shown) VH: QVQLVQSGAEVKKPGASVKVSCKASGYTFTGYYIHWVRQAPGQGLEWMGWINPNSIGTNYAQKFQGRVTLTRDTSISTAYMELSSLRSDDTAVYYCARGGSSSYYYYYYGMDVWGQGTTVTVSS VL: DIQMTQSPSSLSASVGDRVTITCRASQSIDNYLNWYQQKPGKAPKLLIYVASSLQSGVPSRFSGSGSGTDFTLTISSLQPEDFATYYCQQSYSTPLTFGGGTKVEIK"
  test_result: 0.00682
- binder: "mAb25491 (antibody, V domains shown) VH: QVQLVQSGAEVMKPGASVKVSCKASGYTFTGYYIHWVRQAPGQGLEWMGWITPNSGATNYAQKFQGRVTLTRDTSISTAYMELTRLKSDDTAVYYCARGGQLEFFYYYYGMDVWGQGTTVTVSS VL: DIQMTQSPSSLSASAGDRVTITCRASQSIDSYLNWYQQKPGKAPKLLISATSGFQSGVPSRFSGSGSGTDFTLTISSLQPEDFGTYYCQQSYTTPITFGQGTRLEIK"
  test_result: 0.00128
- binder: "mAb25508 (antibody, V domains shown) VH: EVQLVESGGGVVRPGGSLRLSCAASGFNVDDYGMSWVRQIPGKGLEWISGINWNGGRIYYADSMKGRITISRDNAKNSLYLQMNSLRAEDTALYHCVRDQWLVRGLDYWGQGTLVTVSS VL: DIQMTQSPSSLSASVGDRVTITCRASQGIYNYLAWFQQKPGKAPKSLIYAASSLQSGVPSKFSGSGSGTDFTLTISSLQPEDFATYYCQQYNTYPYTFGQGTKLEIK"
  test_result: 0.000132

Here is another binder to look at.
Query (binder): mAb22033 (antibody, V domains shown) VH: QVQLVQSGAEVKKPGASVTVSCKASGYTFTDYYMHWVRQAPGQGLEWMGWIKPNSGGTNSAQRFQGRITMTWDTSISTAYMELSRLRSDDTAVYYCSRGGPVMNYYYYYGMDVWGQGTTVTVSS VL: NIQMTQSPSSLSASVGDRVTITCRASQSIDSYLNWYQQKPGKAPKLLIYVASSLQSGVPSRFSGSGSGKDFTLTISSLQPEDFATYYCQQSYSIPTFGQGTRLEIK ; field requested: koff 0.000291
